- TESTED SYSTEM: UniProt:P25103
- Sequence (P25103 whole entry): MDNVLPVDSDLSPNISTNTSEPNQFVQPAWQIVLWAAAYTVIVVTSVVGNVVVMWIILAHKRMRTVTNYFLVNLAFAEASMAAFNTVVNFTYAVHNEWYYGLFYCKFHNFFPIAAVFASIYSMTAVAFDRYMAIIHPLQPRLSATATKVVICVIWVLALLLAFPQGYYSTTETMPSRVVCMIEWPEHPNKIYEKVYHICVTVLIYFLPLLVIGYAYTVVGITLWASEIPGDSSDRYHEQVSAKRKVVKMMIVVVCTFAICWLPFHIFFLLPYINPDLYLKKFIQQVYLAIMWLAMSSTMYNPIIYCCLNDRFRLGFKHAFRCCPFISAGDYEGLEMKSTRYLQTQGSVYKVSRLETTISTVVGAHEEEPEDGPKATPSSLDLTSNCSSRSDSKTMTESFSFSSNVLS
- ASSAY COMMENT: Tested against cloned human NK1 receptor by displacement of 125 I -labeled substance P expressed in CHO cells
QUANTITY: IC50

Cc1cc(C)cc(COC(=O)[C@H](Cc2c[nH]c3ccccc23)[N+](C)(C)C)c1; 125 nM
Cc1cc(C)cc(COC(=O)[C@@H](N)Cc2c[nH]c3ccccc23)c1; 1530 nM
CC(C)(C)OC(=O)N[C@@H](Cc1c[nH]c2ccccc12)C(=O)OCc1ccccc1; 413 nM
Cc1cc(C)cc(COC(=O)[C@H](Cc2c[nH]c3ccccc23)N(C)C)c1; 553 nM
N[C@@H](Cc1c[nH]c2ccccc12)C(=O)OCc1ccccc1; > 10000 nM
COc1ccccc1COC(=O)[C@H](Cc1c[nH]c2ccccc12)NC(=O)OC(C)(C)C; 280 nM

Shifting focus to the molecule that follows.
CC(=O)N[C@@H](Cc1c[nH]c2ccccc12)C(=O)OCc1cc(C)cc(C)c1 [L-708568] yielded IC50 of 67 nM
